Hey, just so you know, these numbers are from ChEMBL document CHEMBL1125873.

test: Half-life value of the compound.; type: ADME
parameter: half-life

compound: O=P(O)(NCCCl)NCCCl [PALIFOSFAMIDE]
testResult: 1.15 h
